Parameter: koff. Scope: all listed entries.
- Tested system: T1, recombinant human IL-4 (human, UniProt P05112 25-153)
- T1 construct: Bought reagent
- T1 sequence (looked up): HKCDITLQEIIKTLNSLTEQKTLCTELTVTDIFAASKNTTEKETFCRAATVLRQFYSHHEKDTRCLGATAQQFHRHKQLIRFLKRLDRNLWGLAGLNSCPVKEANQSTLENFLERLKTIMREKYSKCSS
- Test details: SPR Biacore 3000, antibody captured, cytokine in solution

>  <Binder>
Hu8D4-8 VL1 × VH2 (antibody, V domains shown, Expressed as a whole antibody, purified on Protein A; also called humanized 8D4-8 VL1xVH2) VH: QVQLQQSGPELVKPGASVKISCKASGYSFTSYWIHWIKQRPGQGLEWIGMIDASDGETRLNQRFQGRATLTVDESTSTAYMQLRSPTSEDSAVYYCTRLKEYGNYDSFYFDVWGAGTLVTVSS VL: DIQMTQSPASLSVSVGDTITLTCHASQNIDVWLSWFQQKPGNIPKLLIYKASNLHTGVPSRFSGSGSGTGFTLTISSLQPEDIATYYCQQAHSYPFTFGGGTKLEIKR

>  <koff (s⁻¹)>
0.000348

$$$$
>  <Binder>
mouse anti-IL-4 monoclonal antibody clone 8D4-8 (antibody, V domains shown, Bought mouse monoclonal antibody (Biozol / BioLegend); also called murine 8D4-8) VH: QVQLQQSGPQLVRPGTSVKISCKASGYSFTSYWIHWIKQRPGQGLEWIGMIDPSDGETRLNQRFKDRATLTVDRSSSTAYMQLRSPTSEDSALYYCTRLKEYGNYDSFYFDVWGAGTTVTVSS VL: DIQMNQSPASLSVSLGDTITLTCHASQNIDVWLSWFQQSPGNIPKLLIYKASNLHTGVPSRFSGSGSGTGFTLTISSLQPEDIATYYCQQAHSYPFTFGGGTKLEIKR

>  <koff (s⁻¹)>
0.000217

$$$$
>  <Binder>
chimeric anti-IL-4 clone 8D4-8 monoclonal antibody (antibody, V domains shown, Murine variable domains fused to IGHG1 and IGKC; also called ch8D4-8 WT; chimeric 8D4-8) VH: QVQLQQSGPQLVRPGTSVKISCKASGYSFTSYWIHWIKQRPGQGLEWIGMIDPSDGETRLNQRFKDRATLTVDRSSSTAYMQLRSPTSEDSALYYCTRLKEYGNYDSFYFDVWGAGTTVTVSS VL: DIQMNQSPASLSVSLGDTITLTCHASQNIDVWLSWFQQSPGNIPKLLIYKASNLHTGVPSRFSGSGSGTGFTLTISSLQPEDIATYYCQQAHSYPFTFGGGTKLEIK

>  <koff (s⁻¹)>
0.000195

$$$$
>  <Binder>
Hu8D4-8 VL1 × VH1 (antibody, V domains shown, Expressed as a whole antibody, purified on Protein A; also called hu8D4-8 VL1xVH1; humanized 8D4-8 VL1xVH1) VH: QVQLQQSGPELVKPGASVKISCKASGYSFTSYWIHWIKQRPGQGLEWIGMIDPSDGETRLNQRFQGRATLTVDESTSTAYMQLRSPTSEDSAVYYCTRLKEYGNYDSFYFDVWGAGTLVTVSS VL: DIQMTQSPASLSVSVGDTITLTCHASQNIDVWLSWFQQKPGNIPKLLIYKASNLHTGVPSRFSGSGSGTGFTLTISSLQPEDIATYYCQQAHSYPFTFGGGTKLEIKR

>  <koff (s⁻¹)>
0.000155

$$$$
